target: α4β2 nicotinic receptors (Rattus norvegicus, UniProt P09483+P12390); assay: [3H]cytisine binding displacement, washed whole rat brain membranes; details: inhibitory concentration of the ionized form, calculated assuming only the cationic form interacts; read-out: [3H] Cytisine Binding Ki(Ion)
Sequence (P09483 31-630): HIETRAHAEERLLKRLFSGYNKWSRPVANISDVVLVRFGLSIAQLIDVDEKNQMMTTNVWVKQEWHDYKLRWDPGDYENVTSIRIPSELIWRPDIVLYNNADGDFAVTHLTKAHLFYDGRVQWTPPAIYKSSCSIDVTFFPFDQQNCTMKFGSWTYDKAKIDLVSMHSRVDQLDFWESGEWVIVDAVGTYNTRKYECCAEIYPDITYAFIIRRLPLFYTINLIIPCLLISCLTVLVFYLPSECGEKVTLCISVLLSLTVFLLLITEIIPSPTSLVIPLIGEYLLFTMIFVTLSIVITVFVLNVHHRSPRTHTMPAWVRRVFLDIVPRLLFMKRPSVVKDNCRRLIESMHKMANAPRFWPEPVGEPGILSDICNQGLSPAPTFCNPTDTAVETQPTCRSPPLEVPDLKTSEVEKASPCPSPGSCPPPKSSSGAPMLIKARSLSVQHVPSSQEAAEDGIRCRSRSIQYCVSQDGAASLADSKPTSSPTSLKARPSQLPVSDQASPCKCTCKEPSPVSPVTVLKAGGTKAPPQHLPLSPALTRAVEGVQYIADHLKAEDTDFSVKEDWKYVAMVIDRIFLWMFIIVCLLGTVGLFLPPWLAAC
Sequence (P12390 25-500): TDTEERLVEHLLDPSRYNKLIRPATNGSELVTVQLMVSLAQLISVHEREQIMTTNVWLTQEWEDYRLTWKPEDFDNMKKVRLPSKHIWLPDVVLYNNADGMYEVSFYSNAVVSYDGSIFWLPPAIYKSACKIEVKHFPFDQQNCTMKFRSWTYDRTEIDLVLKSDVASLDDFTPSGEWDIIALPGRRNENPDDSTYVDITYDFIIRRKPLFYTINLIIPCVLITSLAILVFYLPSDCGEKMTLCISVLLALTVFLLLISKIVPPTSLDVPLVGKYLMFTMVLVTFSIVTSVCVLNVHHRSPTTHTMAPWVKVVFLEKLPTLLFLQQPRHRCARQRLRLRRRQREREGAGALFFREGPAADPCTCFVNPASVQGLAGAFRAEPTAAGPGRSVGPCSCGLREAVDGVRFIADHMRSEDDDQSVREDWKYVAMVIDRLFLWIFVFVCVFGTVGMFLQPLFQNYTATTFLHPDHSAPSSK
Below is a list of entries, each paired with its recorded pKi value.
Answer as the number alone; pKi is minus log10 of concentration in mol/L.

Some solved entries appear below for comparison.
COc1ccc(C=C2CCCN=C2c2cccnc2)c(O)c1 [GTS-51]: 6.89
COc1ccc(/C=C2\CCCN=C2c2cccnc2)c(OC)c1 [GTS-21, 3-(2,4-Dimethoxybenzylidene)anabaseine]: 6.80

For the next question, use this molecule.
Could you tell me which pKi is on file for Oc1ccc(C=C2CCCN=C2c2cccnc2)c(O)c1 [GTS-52, 3-(2,4-Dihydroxybenzylidene)anabaseine] ? 6.99
